biological target: recombinant human PKA (Homo sapiens, UniProt P17612); construct: Active recombinant human PKA (residues 1-351, N-terminal His-tag); His-tag (N); purchased Invitrogen, Karlsruhe, Germany; assay: Determination of Protein Kinase A inhibition (Caliper peptide phosphorylation assay); assay type: biochemical; details: recombinant human PKA versus ROCK II
Would you mind telling me the reported Selectivity against PKA of each entry?

## Input For the molecule COc1ccc(C(N)[C@H]2CC[C@@H](Oc3cc4cc[nH]c(=O)c4cc3Cl)CC2)cc1 (single isomer, unassigned) [Example 36] , give its measured Selectivity against PKA value.
## Output >300

## Input Respond only with Selectivity against PKA recorded for CC(N)(c1ccc(F)cc1)C1CCC(Oc2cc3cc[nH]c(=O)c3cc2Cl)CC1 (single isomer, unassigned) [Example 116]
## Output >100

## Input Entry CCC(N)[C@]1(c2cccc(C(F)(F)F)c2)CC[C@H](Oc2cc3cc[nH]c(=O)c3cc2C)CC1 (stereo partly drawn) [Example 86] needs its Selectivity against PKA filled in; supply it.
## Output >10

## Input Give a short answer stating reported Selectivity against PKA for CCC(N)[C@]1(c2ccc(C)c(OC)c2)CC[C@H](Oc2cc3cc[nH]c(=O)c3cc2Cl)CC1 (stereo partly drawn) [Example 64] .
## Output >1000

## Input Report Selectivity against PKA, nothing else, for this molecule: CCC(N)[C@]1(c2ccc(Br)cc2)CC[C@H](Oc2cc3cc[nH]c(=O)c3cc2Cl)CC1 (stereo partly drawn) [Example 6]
## Output >1000

## Input Annotate the molecule NC(c1ccc(F)cc1)C1CCC(Oc2cc3cc[nH]c(=O)c3cc2Cl)CC1 (single isomer, unassigned) [Example 37] with its measured Selectivity against PKA.
## Output >1000

## Input Given CCC(N)[C@]1(c2cccc(OC(F)(F)F)c2)CC[C@H](Oc2cc3cc[nH]c(=O)c3cc2C)CC1 (stereo partly drawn) [Example 85] , respond with its Selectivity against PKA.
## Output >100

## Input Query Selectivity against PKA for CCC(N)[C@]1(c2ccccc2OC)CC[C@H](Oc2cc3cc[nH]c(=O)c3cc2Cl)CC1 (stereo partly drawn) [Example 69]
## Output >1000

## Input Write down Selectivity against PKA measured for item CCC(N)[C@]1(c2ccc(F)cc2F)CC[C@H](Oc2cc3cc[nH]c(=O)c3cc2Cl)CC1 (stereo partly drawn) [Example 56]
## Output >1000

## Input For the molecule Cc1ccc(C(N)C2CCC(Oc3cc4cc[nH]c(=O)c4cc3Cl)CC2)cc1 (single isomer, unassigned) [Example 38] , give its measured Selectivity against PKA value.
## Output >1000

## Input Determine its reported Selectivity against PKA: CCC(N)[C@]1(c2ccc(F)cc2C)CC[C@H](Oc2cc3cc[nH]c(=O)c3cc2Cl)CC1 (stereo partly drawn) [Example 57]
## Output >1000

## Input Please list Selectivity against PKA recorded for the molecule CCC(N)[C@]1(c2ccc(F)c(OC)c2)CC[C@H](Oc2cc3cc[nH]c(=O)c3cc2Cl)CC1 (stereo partly drawn) [Example 62]
## Output >1000

## Input For the molecule CCC(N)C1(c2ccc(F)cc2)CC(Oc2cc3cc[nH]c(=O)c3cc2Cl)C1 (stereo not drawn) [Example 125] , give its measured Selectivity against PKA value.
## Output >10

## Input Please give the documented Selectivity against PKA of CCC(N)[C@]1(c2cccc(OC(F)(F)F)c2)CC[C@H](Oc2cc3cc[nH]c(=O)c3cc2Cl)CC1 (stereo partly drawn) [Example 84]
## Output >100

## Input Item CCC(N)C[C@]1(c2ccc(F)cc2)CC[C@H](Oc2cc3cc[nH]c(=O)c3cc2Cl)CC1 (stereo partly drawn) [Example 110] : provide Selectivity against PKA
## Output >300

## Input Output Selectivity against PKA of CCC(N)[C@]1(c2ccccc2OC(F)(F)F)CC[C@H](Oc2cc3cc[nH]c(=O)c3cc2Cl)CC1 (stereo partly drawn) [Example 61]
## Output >10

## Input Return the recorded Selectivity against PKA value; entry: CCC(N)[C@]1(c2ccc(C(C)C)cc2)CC[C@H](Oc2cc3cc[nH]c(=O)c3cc2Cl)CC1 (stereo partly drawn) [Example 27]
## Output >100

## Input Annotate the molecule NC(C1CCC(Oc2cc3cc[nH]c(=O)c3cc2Cl)CC1)C1CC1 (single isomer, unassigned) [Example 132] with its measured Selectivity against PKA.
## Output >100

## Input Note down Selectivity against PKA recorded for COc1ccc(C(C)(N)C2CCC(Oc3cc4cc[nH]c(=O)c4cc3Cl)CC2)cc1 (stereo not drawn) [Example 117]
## Output >300

## Input Name the recorded Selectivity against PKA of the molecule listed here: CCC(N)[C@]1(c2ccc(F)cc2)CC[C@@H](Oc2cc3cc[nH]c(=O)c3cc2Cl)CC1 (stereo partly drawn) [Example 31]
## Output >300

## Input Return Selectivity against PKA (reported value) for this molecule: CCC(N)[C@]1(c2ccccc2)CC[C@H](Oc2cc3cc[nH]c(=O)c3cc2F)CC1 (stereo partly drawn) [Example 87]
## Output >1000

## Input Identify the reported Selectivity against PKA for the following entry. CC(N)[C@]1(c2ccccc2)CC[C@H](Oc2cc3cc[nH]c(=O)c3cc2Cl)CC1 (stereo partly drawn) [Example 24]
## Output >1000

## Input Name the recorded Selectivity against PKA of the molecule listed here: NC(c1ccccc1)C1CCC(Oc2cc3cc[nH]c(=O)c3cc2Cl)CC1 (stereo not drawn) [Example 128]
## Output >10

## Input Tell me its Selectivity against PKA given CCC(N)[C@]1(c2ccc(F)cc2)CC[C@H](Oc2cc3cc[nH]c(=O)c3cc2Cl)CC1 (stereo partly drawn) [Example 1] as the entry.
## Output >1000

## Input Give Selectivity against PKA for NC(C1CC1)[C@]1(c2ccccc2)CC[C@H](Oc2cc3cc[nH]c(=O)c3cc2Cl)CC1 (stereo partly drawn) [Example 26]
## Output >1000

## Input Write down Selectivity against PKA measured for item NC(CF)[C@]1(c2ccc(F)cc2)CC[C@H](Oc2cc3cc[nH]c(=O)c3cc2Cl)CC1 (stereo partly drawn) [Example 114]
## Output >1000

## Input Hello, please tell me recorded Selectivity against PKA for this one: CC(N)[C@]1(c2ccc(F)cc2)CC[C@@H](Oc2cc3cc[nH]c(=O)c3cc2Cl)CC1 (stereo partly drawn) [Example 13]
## Output >300

## Input Provide one value: measured Selectivity against PKA of CCC(N)[C@]1(c2ccccc2)CC[C@H](Oc2cc3cc[nH]c(=O)c3cc2Cl)CC1 (stereo partly drawn) [Example 3]
## Output >1000

## Input Annotate the molecule CCC(N)[C@]1(c2cc(F)cc(F)c2)CC[C@H](Oc2cc3cc[nH]c(=O)c3cc2F)CC1 (stereo partly drawn) [Example 66] with its measured Selectivity against PKA.
## Output >10

## Input Answer with the recorded Selectivity against PKA for the molecule listed here: CCC(N)[C@]1(c2ccc(C(F)(F)F)cc2)CC[C@H](Oc2cc3cc[nH]c(=O)c3cc2Cl)CC1 (stereo partly drawn) [Example 8]
## Output >1000
